# assay_system: NLRP3 (Homo sapiens, UniProt Q96P20)
# Sequence (Q96P20 whole entry): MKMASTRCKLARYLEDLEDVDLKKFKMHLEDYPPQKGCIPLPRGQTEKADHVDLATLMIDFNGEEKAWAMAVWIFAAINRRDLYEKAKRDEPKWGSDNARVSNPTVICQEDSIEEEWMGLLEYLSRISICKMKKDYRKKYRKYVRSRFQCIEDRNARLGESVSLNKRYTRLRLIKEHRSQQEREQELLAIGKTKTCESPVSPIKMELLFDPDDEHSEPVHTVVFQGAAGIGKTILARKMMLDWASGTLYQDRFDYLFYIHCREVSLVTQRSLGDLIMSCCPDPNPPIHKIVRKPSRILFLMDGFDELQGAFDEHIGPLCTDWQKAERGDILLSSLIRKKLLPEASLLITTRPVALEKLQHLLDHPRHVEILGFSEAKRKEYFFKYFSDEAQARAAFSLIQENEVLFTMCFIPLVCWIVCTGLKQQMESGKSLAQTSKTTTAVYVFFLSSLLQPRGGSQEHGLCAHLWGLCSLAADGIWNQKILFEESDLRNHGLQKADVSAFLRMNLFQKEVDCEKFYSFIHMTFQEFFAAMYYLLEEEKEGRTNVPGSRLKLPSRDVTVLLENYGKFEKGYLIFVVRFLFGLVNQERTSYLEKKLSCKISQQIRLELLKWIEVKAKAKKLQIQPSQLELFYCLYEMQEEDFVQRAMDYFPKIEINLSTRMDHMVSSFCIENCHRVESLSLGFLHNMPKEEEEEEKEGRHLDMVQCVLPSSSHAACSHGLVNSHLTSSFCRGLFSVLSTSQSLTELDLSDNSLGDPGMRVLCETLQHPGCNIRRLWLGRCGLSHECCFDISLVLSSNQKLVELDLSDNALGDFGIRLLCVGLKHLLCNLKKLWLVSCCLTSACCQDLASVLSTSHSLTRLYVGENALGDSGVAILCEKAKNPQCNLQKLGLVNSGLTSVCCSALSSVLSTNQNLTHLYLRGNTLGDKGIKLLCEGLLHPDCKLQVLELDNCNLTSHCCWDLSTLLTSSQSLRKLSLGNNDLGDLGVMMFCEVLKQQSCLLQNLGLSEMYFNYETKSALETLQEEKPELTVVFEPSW
# protocol_summary: THP-1 cells pyroptosis assay
# Format: cell-based
# Set-up: Seed THP-1 cells (25,000 cells/well) containing 1.0 μg/ml LPS; host or cells: THP-1
# test_settings: LPS 1.0 μg/ml, nigericin 5 μM, resazurin readout, 10 μM top dose (Example 2: top dose of 30 μM)
The following compounds are listed with their measured IC50 values.

Recorded IC50, per entry:
Measured IC50 of Cc1cc2c(c(Nc3nnc(S(=O)(=O)c4ccccc4)[nH]3)c1-c1ccnc(OC3CCN(C)CC3)c1)CCC2 : ≤ 500 nM

Measured IC50 of O=S(=O)(Cc1ccccn1)c1nnc(Nc2c3c(cc4c2CCC4)CCC3)[nH]1 : ≤ 10000 nM

Measured IC50 of [2H]C([2H])([2H])Oc1cc(-c2ccc3c(c2Nc2nnc(S(=O)(=O)N4CC5(CCN(C)C5)C4)[nH]2)CCO3)ccn1 : ≤ 500 nM

Measured IC50 of CN1CC2(CCN(S(=O)(=O)c3nnc(Nc4c5c(cc6c4CCC6)CCC5)[nH]3)CC2)C1 : ≤ 5000 nM

Measured IC50 of CC(C)c1cc(F)cc(C(C)C)c1Cc1nnc(S(=O)(=O)Cc2ccc(F)cc2)[nH]1 : ≤ 10000 nM

Measured IC50 of CN1CCC(CN(C)S(=O)(=O)c2nnc(Nc3c4c(cc5c3CCC5)CCC4)[nH]2)C1 (stereo not shown) : ≤ 10000 nM

Measured IC50 of CN1CCC(N(C)S(=O)(=O)c2nnc(Nc3c4c(cc5c3CCC5)CCC4)[nH]2)C1 (stereo not shown) : ≤ 5000 nM

Measured IC50 of O=S(=O)(NCc1ccccn1)c1nnc(Nc2c3c(cc4c2CCC4)CCC3)[nH]1 : ≤ 5000 nM

Measured IC50 of CN1CCOCC12CCN(S(=O)(=O)c1nnc(Nc3c4c(cc5c3CCC5)CCC4)[nH]1)CC2 : ≤ 500 nM

Measured IC50 of CN(C)CC1CN(S(=O)(=O)c2nnc(Nc3c4c(cc5c3CCC5)CCC4)[nH]2)CCO1 (stereo not shown) : ≤ 1000 nM

New cases:
Measured IC50 of CN(C)CCn1ccc(S(=O)(=O)c2nnc(Nc3c4c(cc5c3CCC5)CCC4)[nH]2)n1 : ≤ 500 nM

Measured IC50 of CNCC1CN(S(=O)(=O)c2nnc(Nc3c4c(cc5c3CCC5)CCC4)[nH]2)C1 : ≤ 500 nM

Measured IC50 of O=S(=O)(c1nnc(Nc2c3c(cc4c2CCC4)CCC3)[nH]1)N1CCCC2(CCOC2)C1 (stereo not shown) : ≤ 5000 nM

Measured IC50 of CN1CCC2(CCN(S(=O)(=O)c3nnc(Nc4c5c(cc6c4CCC6)CCC5)[nH]3)C2)C1 (stereo not shown) : ≤ 500 nM

Measured IC50 of O=S(=O)(c1nnc(Nc2c3c(cc4c2CCC4)CCC3)[nH]1)N1CCC2(CCCN2CCF)CC1 : ≤ 1000 nM

Measured IC50 of CN1CCC(CN(C)CCCS(=O)(=O)c2nnc(Nc3c4c(cc5c3CCC5)CCC4)[nH]2)CC1 : ≤ 5000 nM
